What TGI was measured for each of the following?
system: ACHN renal; experiment: NCI tumour cell line growth inhibition, 48 h

CSc1nc(C)c2c(n1)N(c1ccc(Cl)cc1)CC2 ... > 100 µM
Nc1nc(=S)[nH]c(C(=O)Nc2nccs2)c1-c1ccccc1 ... > 100 µM
O=C(c1ccccc1)C(Br)C(Br)c1ccccc1 (stereo unspecified) ... 3.38 µM
CC1=CCN(c2ccccn2)OC1c1ccccc1 (stereo unspecified) ... > 100 µM
O=C1/C(=C/c2ccc(Cl)cc2)Oc2ccccc21 ... 43.4 µM

// moving on: another record for TGI
**Q:** Output TGI of COc1cccc(C2C(C#N)=C(N)Oc3cc4c(cc32)OCO4)c1 (stereo unspecified)
**A:** > 100 µM

----------
tested on: IGROV1 ovarian; assay: NCI tumour cell line growth inhibition, 48 h
What GI50 was measured for each of the following?

Reference set (5 entries):
NC(N)=N/N=C/c1c(-c2ccc(Cl)c([N+](=O)[O-])c2)nc2sc3ccccc3n12 ... 11.8 µM
c1cncc([O][Ge]([O]c2cccnc2)([O]c2cccnc2)[O]c2cccnc2)c1 ... > 100 µM
CCCCCCCCCCCCOC1C(C(CC(=O)N2CCN(Cc3ccc4c(c3)OCO4)CC2)NS(=O)(=O)c2cc(Cl)cc(Cl)c2)OC2OC(C)(C)OC21 (centres undefined) ... 14 µM
N#CCC1(n2cc(-c3ncnc4[nH]ccc34)cn2)CN(C2CCN(C(=O)c3ccnc(C(F)(F)F)c3F)CC2)C1 ... > 100 µM
O=C1CCS/C(=N/S(=O)(=O)c2ccc(N3N=C4c5ccccc5CC4C3c3cccs3)cc2)N1Cc1ccccc1 (centres undefined) ... 17.4 µM

Please look at the items below and tell me GI50 for each one, in order.
1. COc1ccc(Cc2nc3cc(OC)c(OC)cc3c(=O)[nH]2)cc1
2. CC1=C2[C@@H](CC1)[C@]1(C)O[C@@](C3CC3)(C[C@H]1OC(=O)CO)[C@H]2OC(=O)/C=C/c1ccccc1
3. COc1ccc(OCC(O)CN2CCN(c3ccc(Cl)cc3)CC2)cc1 (centres undefined)
4. CC(=O)[O-].[Mn+3].[O-]c1ccc(Cl)cc1C=NCCN=Cc1cc(Cl)ccc1[O-]

**A:**
["4.61 µM", "19.7 µM", "18.1 µM", "7.99 µM"]

----------
tested on: SNB-78 CNS; test: NCI tumour cell line growth inhibition, 48 h
measured.attribute: TGI

Reference set (4 entries):
COCC1N=C(c2cc(OC)c(OC)c(OC)c2-c2cc3c(cc2[C@H](C)O)OCO3)O[C@H]1c1ccccc1 (some centres undefined) ... > 100 µM
c1cncc([O][Ge]([O]c2cccnc2)([O]c2cccnc2)[O]c2cccnc2)c1 ... > 100 µM
CC(C)=CC(=O)c1c(C(=O)O)nc2ccccc2[n+]1[O-] ... > 100 µM
COc1cc([C@@H]2Oc3cc4oc(-c5ccccc5)cc(=O)c4c(O)c3O[C@H]2OC)ccc1O ... 38.2 µM

Please look at the items below and tell me TGI for each one, in order.
1. CC(=O)[C@]1(O)Cc2c(O)c3c(c(O)c2[C@@H](OC2CC(N)C(O)C(C)O2)C1)C(=O)c1c(OCc2ccccc2)cccc1C3=O (some centres undefined)
2. Nc1nc(=S)[nH]c(C(=O)Nc2nccs2)c1-c1ccccc1
3. Nc1nc(=S)c2[nH]cnc2[nH]1
4. O=c1[nH]c2ccc([N+](=O)[O-])cc2nc1/C(=N/Nc1ccccc1)C(O)c1ccco1 (centres undefined)
5. COc1ccc(-c2cc(-c3ccco3)c(C#N)c(=O)[nH]2)cc1

**A:**
1. 36.1 µM
2. > 100 µM
3. 172 µM
4. > 100 µM
5. > 100 µM

----------
What TGI was measured for each of the following?
system: OVCAR-3 ovarian; assay: NCI tumour cell line growth inhibition, 48 h
Give bare numbers, in µM.

COc1ccc(/C=C/C(C)=N/OCC(=O)Nc2ccc(Cl)cc2)cc1 ... 15

Please look at the items below and tell me TGI for each one, in order.
1. O=C(Oc1ccc2c(c1)CN(Cc1ccccc1)CO2)c1ccccc1
2. CCCCCCCCCCCCC1N=C(N)NC2(CCCO2)C1C(=O)OC (stereo not given)

**A:**
1. 29.7
2. 13.2

**Q:** # lookup: OVCAR-3 ovarian TGI, key = CCN1CCN(c2nc(NNC(=O)c3ccccc3)nc(N3CCN(C(c4ccccc4)c4ccccc4)CC3)n2)CC1
**A:** 13.2

----------
test system: U251 CNS; experiment: NCI tumour cell line growth inhibition, 48 h
measured.attribute: TGI

Cc1cc(C)nc(NS(=O)(=O)c2ccc(Nc3c4ccccc4nc4ccc(C(=O)Nc5ccc(S(=O)(=O)N=C(N)N)cc5)cc34)cc2)n1 ... > 100 µM
Cc1cc(=O)n2nc(CSc3nnc(Sc4cc(O)ccc4O)s3)sc2n1 ... > 100 µM
O=C(c1ccccc1)C(Br)C(Br)c1ccccc1 (stereo not given) ... 20.9 µM

Please look at the items below and tell me TGI for each one, in order.
1. O=C(CC1=Nc2nnc(-c3nnc4n3C(=O)C(CC(=O)C3CC3)=N4)n2C1=O)C1CC1
2. CN(C)c1ccc(C2CC(C)(O)Oc3cc4c(cc32)OCO4)cc1 (stereo not given)

**A:**
1: > 100 µM; 2: > 100 µM

Please look at the items below and tell me TGI for each one, in order.
1. Fc1ccc(-c2nn3c(COc4ccc(Cl)cc4)nnc3s2)cc1Oc1ccccc1
2. COC(=O)c1sc(=NC(=S)N2CCCCC2)sc1C(=O)OC
3. O=c1[nH]c2ccc([N+](=O)[O-])cc2nc1/C(=N/Nc1ccccc1)C(O)c1ccco1 (stereo not given)

**A:**
1: > 53.5 µM; 2: > 100 µM; 3: > 100 µM

Please look at the items below and tell me TGI for each one, in order.
1. NNC(=O)N/N=C1\CN(c2ccc(Cl)cc2Cl)C(=O)C(=O)C1c1nc2ccccc2o1 (stereo not given)
2. Cc1ccc(S(=O)(=O)N2CCC(C(=O)O)(c3ccccc3)CC2)cc1

**A:**
["> 100 µM", "> 100 µM"]

----------
tested on: UO-31 renal; assay: NCI tumour cell line growth inhibition, 48 h
measured.attribute: TGI (µM)
Answers are plain numbers, in µM.

COc1ccc(N=Nc2c(N)nn3c(SC)c(C#N)c(N)nc23)cc1 ... 25.4

// moving on: another record for TGI
**Q:** Output TGI of Cc1ccnc(Nc2ccc([N+](=O)[O-])c(NCCN3CCOCC3)n2)c1
**A:** 30.7

----------
system: NCI/ADR-RES ovarian; test: NCI tumour cell line growth inhibition, 48 h
measured.attribute: TGI

C[n+]1c2ccccc2c(C(=O)Nc2ccc(S(=O)(=O)Nc3ncccn3)cc2)c2ccccc21 ... > 100 µM
C[n+]1c(-c2ccc(/C=N/NC(=O)C(=O)N/N=C/c3ccc(-c4cn5ccccc5[n+]4C)cc3)cc2)cn2ccccc21 ... > 100 µM
Cc1ccc(C2=C(Cl)C(=O)C(c3ccc(C)cc3)=C(Cl)C2=O)cc1 ... > 100 µM
OCCCCC#Cc1ccccc1C#Cc1ccc(C(F)(F)F)cc1 ... 30.7 µM
N/C(=N\C(N)=N\c1nc2ccccc2s1)c1cnccn1 ... > 100 µM
COc1cc2c(cc1OC)C(=O)N(c1ccc(OCCN3CCCC3)cc1)C2=O ... > 100 µM
C=CCNC1=C2C[C@@H](C)C[C@@H](OC)[C@H](OC(=O)CCN(C)C)[C@H](C)/C=C(\C)[C@@H](OC(N)=O)[C@H](OC)/C=C\C=C(/C)C(=O)NC(=CC1=O)C2=O ... > 80.3 µM
COc1ccc(/C(CC2OC(=O)c3ccccc32)=N\NC(N)=O)cc1 (stereo not given) ... > 100 µM

Please look at the items below and tell me TGI for each one, in order.
1. S=c1[nH]nc(CCCCCCCCc2n[nH]c(=S)o2)o1
2. O=c1nc2[nH]c3c(-c4n[nH]c(=O)[nH]c4=O)cccc3c2n[nH]1
3. CCOC(=O)C1CCC(=O)N1C(=O)c1ccc(Cl)cc1 (stereo not given)
4. O=C(c1ccccc1)C(Br)C(Br)c1ccccc1 (stereo not given)
5. Fc1ccc(-c2nn3c(COc4ccc(Cl)cc4)nnc3s2)cc1Oc1ccccc1
6. c1cc2c(cc1[C@@H]1OC[C@@H]3[C@H]1CO[C@H]3c1ccc3c(c1)OCO3)OCO2

**A:**
1. > 100 µM
2. > 100 µM
3. > 100 µM
4. 9.55 µM
5. 95.5 µM
6. > 100 µM

Please look at the items below and tell me TGI for each one, in order.
1. CCN1CCN(c2nc(NNC(=O)c3ccccc3)nc(N3CCN(C(c4ccccc4)c4ccccc4)CC3)n2)CC1
2. C=CCN1C(=O)CC(=O)N(NC2=NNC3(C(=O)N2)c2ccccc2-c2ccccc23)C1=S

**A:**
1. 14.3 µM
2. > 100 µM
